Molecular target: T1, human MSLN-FL-his protein (human, UniProt Q13421 296-580)
T1 construct: Made in HEK293E cells, purified on nickel column; also called hMSLN-FL-his; human MSLN full-length protein; not shown: His tag
T1 sequence (Q13421 other isoform, or with tags, fused parts or gaps): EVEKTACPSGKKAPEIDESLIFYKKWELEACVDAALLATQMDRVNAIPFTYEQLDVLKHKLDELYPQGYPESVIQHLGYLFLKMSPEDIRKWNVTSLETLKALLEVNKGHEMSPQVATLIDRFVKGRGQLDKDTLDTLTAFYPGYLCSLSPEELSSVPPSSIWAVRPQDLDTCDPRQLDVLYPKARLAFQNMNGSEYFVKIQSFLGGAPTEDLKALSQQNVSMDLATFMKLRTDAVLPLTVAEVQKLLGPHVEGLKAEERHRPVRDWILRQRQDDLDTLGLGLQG
Test: ELISA, coated antigen, antibody 200 nM
PROPERTY: OD450
// response body must contain only the number

Solved entries:
S009-F7.61.21 chimeric antibody (antibody, human IgG1, kappa, V domains shown, Human-murine chimeric antibody, human IgG1/kappa constant regions) VH: DVQLQQSGPELVEPGASVRIPCKAAGHTFTDYNVDWVKQSHGQSLEWIGDVNPNTDGAIYNQKFEGKATLTVDTSSSTAYMELRSLTSEDTAVYFCARRRLGQGGFDSWGQGTTLTVSS VL: QVVLTQSPAIMSASPGEKVTLTCGASSSLISKYLYWYQQKPGSSPKLWIYSTSNLASGVPARFSGSGSGTSYSLTISSMEAEDAASYFCHQWSSYPYTFGGGTKVEIKR; 2.15
S009-F7.18.10 chimeric antibody (antibody, human IgG1, kappa, V domains shown, Human-murine chimeric antibody, human IgG1/kappa constant regions) VH: QVQLQQSGAELVRPGTSVKVSCKASGYAFTNYLIEWVKQRPGQGLEWIGVINPGSGGTKYNEKFKGKATLTADKSSSTAYMQLSSLTSEDSAVYFCASDYDYDPFAYWGQGTLVTVSA VL: DIVMTQSHKFMSTSVGDRVSITCKASQDVSTAVAWYQRKPGQSPKLLIYWASTRHTGVPDRFTGSGSGTDYTLTISYMQAEDLALYYCQQHYSTPYTFGGGTKLEIKR; 2.4
S009-F7.6.17 chimeric antibody (antibody, human IgG1, kappa, V domains shown, Human-murine chimeric antibody, human IgG1/kappa constant regions) VH: QVQLQQSGAELARPGASVKMSCKASGYTFTTYTMHWVKQRPGQGLEWIGYISPTGDFTKYNQKFKDKATLTTDKSSNTAFMQLSSLTSEDSAVYYCARWNGTVWFAYWGQGTLVTVSA VL: DIVMTQSQKFMSTSVGDRVTVTCKASQALGTNVAWYQQKPGQSPKVLIYSASYRYSGVPYRFAGGGSGTDFTLTITNVQSEDLAEYFCQQYNNYPLTFGAGTKLELKR; 2.75
S009-F7.48.1 chimeric antibody (antibody, human IgG1, kappa, V domains shown, Human-murine chimeric antibody, human IgG1/kappa constant regions) VH: QVQLQQPGTELVKPGASVKLSCKASGYTFTSYWMHWVKQRPGQGLEWIGNINPSNGGTNNNENFKSKATLTVDTSSSTAYMQLSSLTSEDSAVYYCVRNGYHGYWYFDVWGTGTTVTVSS VL: DIVMTQSQKFMSTSVGDRVSVTCKASQNVGTNVAWYQQQPGQSPKALIYSASYRYSGVPDRFTGSVSGTDFTLTISNVQSEDLAEYFCQQYNSYPLTFGGGTKLEIKR; 2.62
S009-F7.33.24 chimeric antibody (antibody, human IgG1, kappa, V domains shown, Human-murine chimeric antibody, human IgG1/kappa constant regions) VH: QVQLQQPGTELVKPGASVKLSCKASGYTFTSYWMHWVKQRPGQGLEWIGNVNPSNGGSNYNEKFKNKATLTVDKSSSTADMQLNSLTSEDSAVYYCAPHYIGSRPGFAYWGQGTLVTVSG VL: DIVMTQSQKFMSTSVGDRVSVTCKASQNVGTNIAWYQQKPGQSPKALIYSASYRYSGVPDRFTGSGSGTDFTLTITNVQSEDLAEYFCQQYNSYPLTFGGGTKVEIKR; 2.48

Q. Could you please provide reported OD450 for S009-F7.12.13 chimeric antibody (antibody, human IgG1, kappa, V domains shown, Human-murine chimeric antibody, human IgG1/kappa constant regions) VH: EVQLQQSGPELVKPGASVKIPCKASGYTFTDYNMDWVKQSHGKGLEWIGDINPNTDDTIYNQKFNGKATLTVDKSSSTAYMELRSLTSEDTAVYYCSRRLIGTGYFDVWGTGTTVTVSS VL: QIVLTQSPAIMSASPGEKVTLTCSASSSVISTYLCWYRQKPGSSPELWIYSTSNLASGVPARFSGSGSGTSYSLTISSMEAEDAASYFCHQWSNYPYTFGGGTKLGMKR ? Thanks!
A. 2.65

Entry source: patent US20250250357A1
